- Read-out: Cytochrome P450 2C19 (Homo sapiens) (UniProt P33261)
- Sequence (P33261 whole entry, looked up): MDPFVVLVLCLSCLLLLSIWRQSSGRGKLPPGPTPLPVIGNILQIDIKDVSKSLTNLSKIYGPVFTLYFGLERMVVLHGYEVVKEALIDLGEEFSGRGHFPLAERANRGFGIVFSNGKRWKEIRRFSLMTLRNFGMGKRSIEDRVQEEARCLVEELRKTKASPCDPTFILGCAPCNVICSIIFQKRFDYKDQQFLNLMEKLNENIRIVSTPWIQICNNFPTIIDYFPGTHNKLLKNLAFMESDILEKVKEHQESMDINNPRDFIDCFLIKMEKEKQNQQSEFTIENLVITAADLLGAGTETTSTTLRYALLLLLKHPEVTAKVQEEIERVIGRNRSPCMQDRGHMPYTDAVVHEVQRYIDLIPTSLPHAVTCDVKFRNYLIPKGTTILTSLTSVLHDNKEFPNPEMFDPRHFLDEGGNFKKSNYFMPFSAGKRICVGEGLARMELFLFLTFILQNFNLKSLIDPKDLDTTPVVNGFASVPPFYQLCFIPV
- procedure-details: LTEA_HepaRG_CYP2C19: Life Technologies and Expression Analysis (LTEA) Assay for CYP2C19 using HepaRG (AID 2283482)
- condition-description: mRNA level, 48 h; actives raise or lower the signal
Active and inactive are the calls of the source. How the source made its calls: active means hit-call score of the fitted dose curve at least 0.9, where 1 is the maximum; inactive means score below 0.9.
Outcomes: label 1 = active, label 0 = inactive

1. CN(C)C(=O)NC1(c2ccccc2)CCN(CC[C@@]2(c3ccc(F)c(F)c3)CN(C(=O)c3ccccc3)CCO2)CC1	label 1
2. Cc1cc(SC2=C(O)C[C@@](CCc3ccc(N)cc3)(C(C)C)OC2=O)c(C(C)(C)C)cc1CO	label 1
3. CCc1cc(C2=C(C(=O)O)N(c3ccccc3C(F)(F)F)S(=O)(=O)c3ccccc32)cc2c1OCO2	label 1
4. CC(N)=O	label 0
5. O=C1NC(=O)C(c2ccccc2)(c2ccccc2)N1	label 1
6. CCN(CC)CCOc1ccc(C(=C(Cl)c2ccccc2)c2ccccc2)cc1	label 0
7. CCCCCCCCCCCCCCCCO	label 0
8. CCC(C)N(C)C(=O)c1cc2ccccc2c(-c2ccccc2Cl)n1 (stereo not given)	label 1
9. CCCC[C@H]1CN(CC2CCOCC2)C(=O)OC12CCN(C1(C)CCN(C(=O)c3c(C)ncnc3C)CC1)CC2	label 0
10. O=C1OC(c2ccc(O)cc2)(c2ccc(O)cc2)c2ccccc21	label 1
11. COC(=O)CCC(=O)OC	label 0
12. OCC(O)CO	label 0
13. N[C@@H](Cc1c[nH]c2ccccc12)C(=O)O	label 0
14. Cc1ccc(C(C)(C)C)c(O)c1	label 0
15. C#CC(O)C(CC)CCCC (stereo not given)	label 0
16. CCOCCOCCO	label 0
17. S=c1[nH]c2ccccc2s1	label 0
18. Oc1ccc(O)cc1	label 0
19. CC(=O)OCC(COC(C)=O)OC(C)=O	label 0
20. O=C1CCCCC1	label 0

----------
- Read-out: cysteine-aspartic acid protease (CASP8), CASP8 (gene 841)
- procedure-details: LTEA_HepaRG_CASP8: Life Technologies and Expression Analysis (LTEA) Assay for cysteine-aspartic acid protease (CASP8) using HepaRG (AID 2283480)
- condition-description: mRNA level, 48 h; actives raise or lower the signal
Active and inactive are the calls of the source. Rule for the calls: active = hit-call score of the fitted dose curve at least 0.9, where 1 is the maximum; inactive = score below 0.9.
recorded-metric: AC50

1) CCN(CC)CCOc1ccc(C(=C(Cl)c2ccccc2)c2ccccc2)cc1	inactive
2) Cc1cc(Cc2ccc(N)c(C)c2)ccc1N	inactive
3) S=c1[nH]c2ccccc2s1	inactive
4) CC(=O)OC1CC(C)OC(C)O1 (centres undefined)	inactive
5) O=NO	inactive
6) COc1ccc(OC(F)(F)F)cc1CN[C@H]1CCCN[C@H]1c1ccccc1	inactive
7) CC(C)c1cccc(C(C)C)c1NC(=O)NS(=O)(=O)c1cc(C(C)(C)O)co1	inactive
8) O=C(Oc1ccccc1)c1cccc(C(=O)Oc2ccccc2)c1	inactive
9) OCC(CO)n1cnc(-c2ccc(F)cc2)c1-c1ccnc(Oc2ccccc2)n1	inactive
10) C/C=C/C=C/C(=O)O	inactive
11) NC1CCCCC1	inactive
12) CN(C)C(=O)NC1(c2ccccc2)CCN(CCC[C@]2(c3ccc(Cl)c(Cl)c3)CCCN(C(=O)c3ccccc3)C2)CC1	inactive
13) CC1(C)C(=O)NC(=O)N1CO	inactive
14) Oc1ccc(O)cc1	inactive
15) NC(=Nc1ccccc1)Nc1ccccc1	inactive
16) CCCCCCC(C=O)=Cc1ccccc1	inactive
17) COC(=O)[C@H]1[C@H]2C[C@@H]3c4[nH]c5cc(OC)ccc5c4CCN3C[C@H]2C[C@@H](OC(=O)c2cc(OC)c(OC)c(OC)c2)[C@@H]1OC	inactive
18) Cn1cnc2c1c(=O)[nH]c(=O)n2C	inactive
19) CCCCCCCCCCCCCCCCO	inactive
20) Nc1nc(Cl)nc2c1ncn2[C@H]1C[C@H](O)[C@@H](CO)O1	inactive
21) CN(C)C(=O)NC1(c2ccccc2)CCN(CC[C@@]2(c3ccc(F)c(F)c3)CN(C(=O)c3ccccc3)CCO2)CC1	inactive
22) CCCCc1nc2cccnc2n1Cc1ccc(-c2ccccc2-c2nnn[nH]2)cc1	inactive
23) CC(=O)O[C@]1(C(C)=O)CC[C@H]2[C@@H]3C=C(Cl)C4=CC(=O)[C@@H]5C[C@@H]5[C@]4(C)[C@H]3CC[C@@]21C	inactive
24) Cc1cc(SC2=C(O)C[C@@](CCc3ccc(N)cc3)(C(C)C)OC2=O)c(C(C)(C)C)cc1CO	inactive
25) CCc1nc(N)nc(N)c1-c1ccc(Cl)cc1	inactive
26) O=C(NS(=O)(=O)/C=C/c1cccs1)c1ccc(F)cc1Br	inactive
27) CS(=O)(=O)c1ccc([C@@H](C[C@H]2CCC(=O)C2)C(=O)Nc2cnccn2)cc1Cl	1200 nM (active)
28) CC(=O)O	inactive
29) CC(C)(C)c1ccccc1	inactive
30) O=C1CCCCC1	inactive
31) Oc1ccccc1O	inactive
32) CC(C)NCC(O)c1ccc(O)c(O)c1 (centres undefined)	inactive
33) CC(C)OC(=O)C(C)(C)Oc1ccc(C(=O)c2ccc(Cl)cc2)cc1	inactive
34) Nc1nc(=S)c2[nH]cnc2[nH]1	inactive
35) CO[C@@H]1COCC[C@@H]1N[C@@H]1CC[C@@](C(=O)N2CCc3ncc(C(F)(F)F)cc3C2)(C(C)C)C1	inactive
36) CC(N)=O	inactive
37) Cc1ccc(C(C)(C)C)c(O)c1	inactive
38) N[C@@H](Cc1c[nH]c2ccccc12)C(=O)O	inactive
39) O=[Si]=O	inactive
40) Cc1cn([C@H]2C=C[C@@H](CO)O2)c(=O)[nH]c1=O	inactive
41) CC(C)c1cccc(C(C)C)c1	inactive
42) CSc1ccc(Oc2ccc(S(N)(=O)=O)cc2CN(C)C)cc1C	inactive
43) OCC(O)CO	inactive
44) O=C(O)c1[nH]n(-c2ccc(S(=O)(=O)O)cc2)c(=O)c1N=Nc1ccc(S(=O)(=O)O)cc1	inactive
